Tested on: MDA-MB-468 breast
Experiment: NCI-60 one-dose screen, 48 h
Details: 10 µM unless noted
Procedure: Growth inhibition of the MDA-MB-468 human Breast tumor cell line is measured as a screen for anti-cancer activity. Cells are grown in 96 well plates and exposed to the test compound for 48 hours. Compounds are tested at a single concentration, which is 10^-5 M for most compounds. The reported endpoint is percent growth (GI% or GIPRCNT), where numbers from 0 - 100% represent growth inhibition, and numbers from -100% - 0 represent cell death. […]
This is part of a sample that, as a whole, favours compounds with a hit. Of some 83,000 tested, about 20% had one in any assay. Activity calls are given as the source filed them. Rule for the calls: active = growth percent below 10; inactive = the rest.
Reply using exactly one outcome from active, inactive

Recorded call for CC(=O)C1Cc2ccccc2C1=O (stereo not drawn) ?
inactive

Assay result, entry O=C(CNCCO)Nc1ccc2ncnc(Nc3ccc(OCc4cccc(F)c4)c(Cl)c3)c2c1 — outcome?
active

What did this assay record as the result for COc1ccc(Nc2nccc(N3CCN(c4c5ccc(Cl)cc5nc5ccc(OC)cc45)CC3)n2)cc1 ?
inactive

Please let me know the test result on file for CC1(C)N=C(N)N=C(N)N1c1ccc(CCc2ccccc2)c(Cl)c1 .
active

I would be grateful if you could indicate the recorded call for Cc1cc2nc(C(Cl)Cl)nc(-c3ccc(Cl)cc3)n2n1 .
active

Which outcome did this test record for the compound Oc1ccc(O)cc1 ?
inactive

So what was the verdict on Cc1ccc2c(c1)C(=O)/C(=C/c1ccc([N+](=O)[O-])cc1)S2 in this test?
inactive

So what was the verdict on COc1ccc(/C=C/C(=O)NCC(C)O)cc1 (stereo not drawn) in this test?
inactive

Recorded test outcome, item Cc1ccc(NC(=S)N/C=C(\c2ccccc2)S(=O)Cc2ccccc2)c(C)c1 (stereo not drawn)
inactive

# lookup: test call for O=C1C2C(C(=O)N1CC[Se][Se]CCN1C(=O)C3C(C1=O)[C@H]1C=C[C@@H]3C1)[C@H]1C=C[C@@H]2C1 (stereo partly drawn)
active

Please indicate how the test categorized Cc1cc(O)ccc1O .
inactive

GET /call?item= N#Cc1c(Nc2cccc(Cl)c2)sc(C(=O)c2cc3cc(Cl)ccc3o2)c1N returns the recorded outcome of this test.
inactive

Per the records of this test, what outcome belongs to COC(=O)/C=C1\S/C(=N\NC(=O)c2cc3ccc2/C=C\c2ccc(cc2)/C=C\3)N(Cc2ccccc2)C1=O ?
inactive

What did the test return for C/C(=N\O)C(=O)NCCCCCC(=O)Nc1ccccc1 ?
inactive

Status in this test for CCCCC1COc2cccc3c2N1C=C/C3=C\C(=O)N(C)c1ccccc1 (stereo not drawn) ?
inactive

# fetch the recorded call for CC(=O)NC(C)(C)C(=O)N1CCC[C@H]1C(=O)NC(C)(C)C(=O)N[C@@H](C)C(=O)NC(C)(C)C(=O)N[C@@H](C)C(=O)N[C@@H](CCC(N)=O)C(=O)NC(C)(C)C(=O)N[C@H](C(=O)NC(C)(C)C(=O)NCC(=O)N[C@@H](CC(C)C)C(=O)NC(C)(C)C(=O)N1CCC[C@H]1C(=O)N[C@H](C(=O)NC(C)(C)C(=O)NC(C)(C)C(=O)N[C@@H](CCC(N)=O)C(=O)N[C@@H](CCC(N)=O)C(=O)N[C@H](CO)Cc1ccccc1)C(C)C)C(C)C here
active

Test call for this compound, please: c1ccc2cc(-c3n(Cc4ccc5ccccc5n4)c4ccccc4[n+]3Cc3ccc4ccccc4n3)ccc2c1
active

Dear colleague, could you share the recorded outcome for Cc1c(O)c(=O)ccn1-c1nc2ccccc2s1 when you have a moment?
inactive
